Biological target: Salicyl-AMP ligase / salicyl-S-ArCP synthetase (Mycobacterium tuberculosis)
Assay: Inhibition of Mycobacterium tuberculosis recombinant MbtA expressed in Escherichia coli by ATP-PPi exchange assay
Settings: read-out: Ki(app)
Criterion: Ki strictly under 2000 nM. Met: met. Not met: not met.

Below are worked cases with known answers.
compound="CCN(CC)CC.Nc1cccc2c1ccn2C1CC(COS(=O)(=O)NC(=O)c2ccccc2O)[C@@H](O)[C@H]1O (single isomer, unassigned)" class_assignment=met
compound=[N-]=[N+]=Nc1nc2c(N)ncnc2n1[C@@H]1O[C@H](COS(=O)(=O)NC(=O)c2ccccc2O)[C@@H](O)[C@H]1O class_assignment="not met"

Threshold test, Ki < 2000 nM: `CC(C)CNc1ncnc2c1ncn2[C@@H]1O[C@H](COS(=O)(=O)NC(=O)c2ccccc2O)[C@@H](O)[C@H]1O`
met

Threshold test, Ki < 2000 nM: `Nc1ncnc2c1nc(N)n2[C@@H]1O[C@H](COS(=O)(=O)NC(=O)c2ccccc2O)[C@@H](O)[C@H]1O`
not met

Threshold test, Ki < 2000 nM: `CNc1ncnc2c1ncn2[C@@H]1O[C@H](COS(=O)(=O)[N-]C(=O)c2ccccc2O)[C@@H](O)[C@H]1O.[Na+]`
met

Threshold test, Ki < 2000 nM: `CCN(CC)CC.Nc1nc(C#Cc2ccccc2)nc2c1ncn2[C@@H]1O[C@H](COS(=O)(=O)NC(=O)c2ccccc2O)[C@@H](O)[C@H]1O`
met

Threshold test, Ki < 2000 nM: `O=C(NS(=O)(=O)OC[C@H]1O[C@@H](n2cnc3c(NC4CCCC4)ncnc32)[C@H](O)[C@@H]1O)c1ccccc1O`
not met

Threshold test, Ki < 2000 nM: `CCNc1ncnc2c1ncn2[C@@H]1O[C@H](COS(=O)(=O)[N-]C(=O)c2ccccc2O)[C@@H](O)[C@H]1O.[Na+]`
met

Threshold test, Ki < 2000 nM: `O=C(NS(=O)(=O)OC[C@H]1O[C@@H](n2cnc3c(NCc4ccccc4)ncnc32)[C@H](O)[C@@H]1O)c1ccccc1O`
not met

Threshold test, Ki < 2000 nM: `O=C(NS(=O)(=O)OC[C@H]1O[C@@H](n2cnc3c(=O)[nH]cnc32)[C@H](O)[C@@H]1O)c1ccccc1O`
met

----------
Target: Salicyl-AMP ligase / salicyl-S-ArCP synthetase (Mycobacterium tuberculosis, UniProt P71716)
Sequence (P71716 whole entry): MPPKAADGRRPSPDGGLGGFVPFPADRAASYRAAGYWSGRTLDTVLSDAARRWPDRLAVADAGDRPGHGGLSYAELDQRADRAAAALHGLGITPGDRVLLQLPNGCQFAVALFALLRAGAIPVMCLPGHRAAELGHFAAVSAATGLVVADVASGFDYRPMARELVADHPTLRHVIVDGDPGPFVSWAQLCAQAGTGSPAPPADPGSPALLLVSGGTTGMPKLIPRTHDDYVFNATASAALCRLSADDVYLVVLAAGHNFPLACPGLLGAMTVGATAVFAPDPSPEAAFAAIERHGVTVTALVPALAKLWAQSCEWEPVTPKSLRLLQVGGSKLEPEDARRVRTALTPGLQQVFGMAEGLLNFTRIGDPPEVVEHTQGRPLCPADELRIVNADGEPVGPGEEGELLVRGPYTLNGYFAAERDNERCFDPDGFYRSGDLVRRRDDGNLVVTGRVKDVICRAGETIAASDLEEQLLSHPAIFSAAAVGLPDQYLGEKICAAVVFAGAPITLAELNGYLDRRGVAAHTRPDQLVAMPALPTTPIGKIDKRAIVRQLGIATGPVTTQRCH
Assay: Inhibition of Mycobacterium tuberculosis recombinant MbtA expressed in Escherichia coli by ATP-PPi exchange assay
Settings: read-out: Ki(app)
Listing: Ki of selected molecules
Provide only the numeric value, understood in nM.

smiles_data=Nc1nc(-c2cccc(-c3ccccc3)c2)nc2c1ncn2[C@@H]1O[C@H](COS(=O)(=O)NC(=O)c2ccccc2O)[C@@H](O)[C@H]1O numeric_result=1.4

Find the recorded Ki belonging to `O=C(NS(=O)(=O)OC[C@H]1O[C@@H](n2cnc3c(NC4CCC4)ncnc32)[C@H](O)[C@@H]1O)c1ccccc1O` and report it.
124

Find the recorded Ki belonging to `CCN(CC)CC.O=C(NS(=O)(=O)OC[C@H]1O[C@@H](n2cnc3c(NC4CC4)ncnc32)[C@H](O)[C@@H]1O)c1ccccc1O` and report it.
1.85

Find the recorded Ki belonging to `Nc1nc(-c2ccc(-c3ccccc3)cc2)nc2c1ncn2[C@@H]1O[C@H](COS(=O)(=O)NC(=O)c2ccccc2O)[C@@H](O)[C@H]1O` and report it.
0.99

----------
Experiment: Therapeutic index, ratio of IC50 for african green money Vero cells to MIC99 for Mycobacterium tuberculosis H37Rv
Assay type: cell-based
Conditions: monkey
metric.name: selectivity ratio

smiles_data=CCN(CC)CC.Nc1nc(Nc2ccccc2)nc2c1ncn2[C@@H]1O[C@H](COS(=O)(=O)NC(=O)c2ccccc2O)[C@@H](O)[C@H]1O metric_name="selectivity ratio" result="> 2000"

Find the recorded selectivity ratio belonging to `CCN(CC)CC.Nc1nc(C#Cc2ccccc2)nc2c1ncn2[C@@H]1O[C@H](COS(=O)(=O)NC(=O)c2ccccc2O)[C@@H](O)[C@H]1O` and report it.
> 2000

----------
Biological target: Salicyl-AMP ligase / salicyl-S-ArCP synthetase (Mycobacterium tuberculosis, UniProt P71716)
Test: Inhibition of Mycobacterium tuberculosis recombinant MbtA expressed in Escherichia coli by ATP-PPi exchange assay
Conditions: read-out: Ki(app)
metric.name: Ki (nM)
Provide only the numeric value, understood in nM.

Look over these answered cases.
smiles_data=Nc1nc(-c2ccccc2-c2ccccc2)nc2c1ncn2[C@@H]1O[C@H](COS(=O)(=O)NC(=O)c2ccccc2O)[C@@H](O)[C@H]1O unit_of_measure=nM numeric_result=47
smiles_data=CC(C)Nc1ncnc2c1ncn2[C@@H]1O[C@H](COS(=O)(=O)[N-]C(=O)c2ccccc2O)[C@@H](O)[C@H]1O.[Na+] unit_of_measure=nM numeric_result=7
smiles_data=CCCNc1ncnc2c1ncn2[C@@H]1O[C@H](COS(=O)(=O)NC(=O)c2ccccc2O)[C@@H](O)[C@H]1O.CCN(CC)CC unit_of_measure=nM numeric_result=3.5
smiles_data=CCN(CC)CC.Nc1ncnc2c1ccn2[C@@H]1O[C@H](COS(=O)(=O)NC(=O)c2ccccc2O)[C@@H](O)[C@H]1O unit_of_measure=nM numeric_result=24.3
smiles_data=CN(C)c1ncnc2c1ncn2[C@@H]1O[C@H](COS(=O)(=O)NC(=O)c2ccccc2O)[C@@H](O)[C@H]1O unit_of_measure=nM numeric_result=380

Find the recorded Ki belonging to `CCN(CC)CC.Nc1nc(I)nc2c1ncn2[C@@H]1O[C@H](COS(=O)(=O)NC(=O)c2ccccc2O)[C@@H](O)[C@H]1O` and report it.
3.03

Find the recorded Ki belonging to `CCN(CC)CC.Nc1nc(Nc2ccccc2)nc2c1ncn2[C@@H]1O[C@H](COS(=O)(=O)NC(=O)c2ccccc2O)[C@@H](O)[C@H]1O` and report it.
0.94

----------
Test system: Mycobacterium tuberculosis
Assay: Ratio of MIC99 for Mycobacterium tuberculosis H37Rv in iron-replete GAST medium to MIC99 for Mycobacterium tuberculosis H37Rv in iron-deficient GAST medium
Assay type: functional
metric.name: Ratio
Answer with a number only.

Look over these answered cases.
compound="CCN(CC)CC.Nc1cccc2c1ccn2C1CC(COS(=O)(=O)NC(=O)c2ccccc2O)[C@@H](O)[C@H]1O (single isomer, unassigned)" target_of_assay="Mycobacterium tuberculosis" numeric_result=8
compound=CNc1ncnc2c1ncn2[C@@H]1O[C@H](COS(=O)(=O)[N-]C(=O)c2ccccc2O)[C@@H](O)[C@H]1O.[Na+] target_of_assay="Mycobacterium tuberculosis" numeric_result=4

Find the recorded Ratio belonging to `CCN(CC)CC.Nc1nc(Nc2ccccc2)nc2c1ncn2[C@@H]1O[C@H](COS(=O)(=O)NC(=O)c2ccccc2O)[C@@H](O)[C@H]1O` and report it.
8

Find the recorded Ratio belonging to `CCN(CC)CC.Nc1nc(C#Cc2ccccc2)nc2c1ncn2[C@@H]1O[C@H](COS(=O)(=O)NC(=O)c2ccccc2O)[C@@H](O)[C@H]1O` and report it.
8

Find the recorded Ratio belonging to `CCCNc1ncnc2c1ncn2[C@@H]1O[C@H](COS(=O)(=O)NC(=O)c2ccccc2O)[C@@H](O)[C@H]1O.CCN(CC)CC` and report it.
4

Find the recorded Ratio belonging to `CCN(CC)CC.O=C(NS(=O)(=O)OC[C@H]1O[C@@H](n2cnc3c(NC4CC4)ncnc32)[C@H](O)[C@@H]1O)c1ccccc1O` and report it.
64

Find the recorded Ratio belonging to `CCN(CC)CC.Nc1nc(I)nc2c1ncn2[C@@H]1O[C@H](COS(=O)(=O)NC(=O)c2ccccc2O)[C@@H](O)[C@H]1O` and report it.
16

Find the recorded Ratio belonging to `CCN(CC)CC.Nc1ncnc2c1ccn2[C@@H]1O[C@H](COS(=O)(=O)NC(=O)c2ccccc2O)[C@@H](O)[C@H]1O` and report it.
8

Find the recorded Ratio belonging to `CCNc1ncnc2c1ncn2[C@@H]1O[C@H](COS(=O)(=O)[N-]C(=O)c2ccccc2O)[C@@H](O)[C@H]1O.[Na+]` and report it.
4

----------
Experiment: Inhibition of protein synthesis in T7 coupled rabbit reticulocyte system by luciferase based translation assay
Format: functional, Oryctolagus cuniculus
metric.name: IC50

Find the recorded IC50 belonging to `Nc1ncnc2c1ncn2[C@@H]1O[C@H](COS(=O)(=O)NC(=O)c2ccccc2O)[C@@H](O)[C@H]1O` and report it.
> 100 µM
